# EXPERIMENTAL_SYSTEM: TXA2 receptor (washed human platelets) (Homo sapiens)
# Construct: endogenous in cells; host or cells: washed human platelets from healthy volunteers
# Sequence (P21731 1-343): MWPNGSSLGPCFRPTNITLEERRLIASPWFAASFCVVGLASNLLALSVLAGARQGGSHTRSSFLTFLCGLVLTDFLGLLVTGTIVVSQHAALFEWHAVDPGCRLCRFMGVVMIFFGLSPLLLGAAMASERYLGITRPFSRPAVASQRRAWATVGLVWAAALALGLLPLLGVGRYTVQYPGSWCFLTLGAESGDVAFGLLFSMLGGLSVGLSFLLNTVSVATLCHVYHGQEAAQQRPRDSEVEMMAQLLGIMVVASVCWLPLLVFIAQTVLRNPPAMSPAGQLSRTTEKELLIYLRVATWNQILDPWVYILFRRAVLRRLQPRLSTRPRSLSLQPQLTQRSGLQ
# PROCEDURE_TEXT: Displacement of [^3 H]-SQ 29,548 binding to washed human platelets (TxA2 antagonism)
# MEASUREMENT_CONTEXT: Table 1; washed human platelets, 30 min at 25° C.; read-out: ^3 H SQ 29548 binding displacement (washed human platelet) IC50
QUANTITY_NAME: IC50 (nM)
Could you give me the number in nM? Just the number is fine.

What measured IC50 goes with O=C(O)CCCCCO/N=C1/c2ccccc2OC(c2ccccc2)C1n1ccnc1 (racemic) ?
33

* * *

# EXPERIMENTAL_SYSTEM: TXA2 receptor (washed human platelets) (Homo sapiens)
# Construct: endogenous in cells; host or cells: washed human platelets from healthy volunteers
# PROCEDURE_TEXT: Displacement of [^3 H]-SQ 29,548 binding to washed human platelets (TxA2 antagonism)
# MEASUREMENT_CONTEXT: Table 3; washed human platelets; read-out: ^3 H-SQ 29548 binding displacement IC50
QUANTITY_NAME: IC50 (µM)
All answers are understood in µM, so give the number only.

Fill blank: measured IC50 of the compound COc1ccc2c(c1)/C(=N/OCCCCC(=O)O)C(n1ccnc1)C(c1ccc(OC)c(OC)c1)O2 (racemic) is ____.
0.1

* * *

IC50 values, listed per item
# System: TxB2 synthesis
# PROCEDURE_TEXT: TxB2 synthesis inhibition in vitro, in whole blood of normal rats
# Assay type: cell-based, rat (Sprague Dawley)
# MEASUREMENT_CONTEXT: Table 3; rat whole blood; read-out: TxB2 synthesis IC50
# Procedure: The effects of a representative group of compounds of the invention were evaluated, in comparison with known compounds, on TxB2 synthesis inhibition in vitro, in whole blood of normal rates, and on TxA2 antagonism in a binding assay in washed human platelets. TxB2 synthesis inhibition Blood was withdrawn from the abdominal aorta of normal Sprague Dawley rats (Charles River Italy) under light ether anaesthesia. […]
Write down the numeric answer in nM and omit the unit.

Param readout = IC50; param system = TxB2 synthesis; param query = `O=C(O)c1ccc(OCCn2ccnc2)cc1` ; response: value
1200

Turning to the following compound.
# get_value(readout= IC50, system= TxB2 synthesis) for COc1ccc2c(c1)/C(=N/OCCCCC(=O)O)C(n1ccnc1)C(c1ccc(OC)c(OC)c1)O2 (racemic)
200

// provenance: patent US5246956A
